Origin of values: patent US20180244785A1

- Tgt: T1, soluble FGFR3c receptor protein (human, UniProt P22607 141-372)
- T1 sequence: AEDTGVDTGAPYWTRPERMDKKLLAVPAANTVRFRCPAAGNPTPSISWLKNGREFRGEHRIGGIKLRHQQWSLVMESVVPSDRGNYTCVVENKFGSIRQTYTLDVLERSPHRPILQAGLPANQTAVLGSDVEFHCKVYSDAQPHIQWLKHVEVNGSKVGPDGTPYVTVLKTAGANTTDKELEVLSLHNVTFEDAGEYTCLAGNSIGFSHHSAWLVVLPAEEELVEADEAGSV
- Measurement Notes: BLI Octet RED96, antibody on anti-hIgG Fc tip
- Method: Briefly, the Pall ForteBio Octet RED96 Bio-Layer Interferometry system was used to determine the specificity of anti-FGFR antibodies for FGFR1c, FGFR2c, FGFR3c, and FGFR4. […] The baseline step was followed by an association step of 300 seconds wherein the binding interaction between the immobilized antibodies and soluble receptors was measured. […] Each binding response was measured and reported real time on a sensorgram trace. […]
Parameter Measured: koff (s⁻¹)
Give a bare numeral; the unit s⁻¹ is implied.

Sample records with koff:
# Binder, Unit Of Measure, Reading
records = [
    ("Vk11 combined with the VH of Ab15 (antibody, V domains shown, captured on anti-human IgG Fc tips) VH: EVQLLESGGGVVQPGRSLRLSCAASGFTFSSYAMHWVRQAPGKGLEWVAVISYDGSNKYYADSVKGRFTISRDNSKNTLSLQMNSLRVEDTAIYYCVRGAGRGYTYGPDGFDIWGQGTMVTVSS VL: DIVMTQSPLSLPVTPGEPASISCTSSRSLLHSDGKTYVYWYLQKPGQSPQVLIYELSNRFSGVPDRFSGSGSGTDFTLKISRVEAEDVGVYYCMQYIEAPLTFGGGTKVEIK", "s⁻¹", 0.0013),
    ("Vk1 combined with the VH of Ab15 (antibody, V domains shown, captured on anti-human IgG Fc tips) VH: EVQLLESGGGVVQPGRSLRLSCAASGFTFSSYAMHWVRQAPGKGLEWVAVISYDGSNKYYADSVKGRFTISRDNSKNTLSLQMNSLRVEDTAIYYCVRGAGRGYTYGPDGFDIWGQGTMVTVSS VL: DIVMTQTPLSLSVTPGQPASISCTSSRSLLHSDGKTYLYWYLQKPGQPPQLLIYELSNRFSGVPDRFSGSGSRTDFTLKISRVEAEDVGVYYCMQYIEAPLTFGGGTKVEIK", "s⁻¹", 0.00138),
    ("Ab92 (antibody, human IgG2, kappa, V domains shown, format in the assays not spelled out) VH: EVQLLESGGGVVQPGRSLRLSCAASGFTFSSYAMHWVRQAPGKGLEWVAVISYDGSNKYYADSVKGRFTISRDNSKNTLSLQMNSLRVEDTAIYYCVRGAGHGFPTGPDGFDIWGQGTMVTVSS VL: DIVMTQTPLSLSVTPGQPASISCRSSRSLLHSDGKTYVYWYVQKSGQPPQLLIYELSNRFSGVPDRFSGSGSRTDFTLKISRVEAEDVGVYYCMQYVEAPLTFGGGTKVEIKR", "s⁻¹", 0.00286),
    ("Vk12 combined with the VH of Ab15 (antibody, V domains shown, captured on anti-human IgG Fc tips) VH: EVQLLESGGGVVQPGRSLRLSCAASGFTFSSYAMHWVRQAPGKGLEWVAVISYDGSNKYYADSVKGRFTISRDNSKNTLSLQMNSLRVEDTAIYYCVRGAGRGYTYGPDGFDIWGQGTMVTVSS VL: DIVMTQSPLSLPVTPGEPASISCTSSRSLLHSDGKTYVYWYLQKPGQSPQLLIYELSNRFSGVPDRFSGSGSGTDFTLKISRVEAEDVGVYYCMQYIEAPLTFGGGTKVEIK", "s⁻¹", 0.000806),
    ("Ab60 (antibody, human IgG2, kappa, V domains shown, format in the assays not spelled out) VH: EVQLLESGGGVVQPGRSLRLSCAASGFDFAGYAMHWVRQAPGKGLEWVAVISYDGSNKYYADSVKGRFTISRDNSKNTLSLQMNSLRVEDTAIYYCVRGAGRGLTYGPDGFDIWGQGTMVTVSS VL: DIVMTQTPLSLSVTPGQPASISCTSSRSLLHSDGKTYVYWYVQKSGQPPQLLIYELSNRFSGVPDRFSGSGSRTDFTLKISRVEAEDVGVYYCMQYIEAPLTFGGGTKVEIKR", "s⁻¹", 0.00239),
]

## Task Look up koff for this binder: Vh2 combined with the VL of Ab15 (antibody, V domains shown, captured on anti-human IgG Fc tips) VH: EVQLVESGGGVVQPGRSLRLSCAASGFTFSSYAMHWVRQAPGKGLEWVAVISYDGSNKYYADSVKGRFTISRDNSKNTLYLQMNSLRAEDTAVYYCARGAGRGYTYGPDGFDIWGQGTMVTVSS VL: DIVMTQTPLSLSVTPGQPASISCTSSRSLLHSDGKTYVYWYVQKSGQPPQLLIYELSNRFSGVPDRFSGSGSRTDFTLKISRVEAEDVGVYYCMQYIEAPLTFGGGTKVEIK
## Result 0.000775

## Task Record: Vk5 combined with the VH of Ab15 (antibody, V domains shown, captured on anti-human IgG Fc tips) VH: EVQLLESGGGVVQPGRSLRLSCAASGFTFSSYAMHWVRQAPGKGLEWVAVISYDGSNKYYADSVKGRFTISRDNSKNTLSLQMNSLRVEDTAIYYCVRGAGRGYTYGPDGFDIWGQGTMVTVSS VL: DIVMTQTPLSLSVTPGQPASISCRSSRSLLHSDGKTYVYWYLQKPGQPPQLLIYELSNRFSGVPDRFSGSGSGTDFTLKISRVEAEDVGVYYCMQYIEAPLTFGGGTKVEIK
## Result 0.000891
